- Tested on: SW-620 colon
- TEST_DETAILS: NCI-60 one-dose screen, 48 h
- APPLIED_CONDITIONS: 10 µM unless noted
Compounds without any hit were thinned out: in the full panel of roughly 83,000, 20% have a hit. The source made the active and inactive calls. How the source made its calls: active means growth percent below 10; inactive means the rest.
Returns: one label drawn from active, inactive

[[record]]
compound = "COc1ccc(N(C)c2nc(Cl)nc3ccn(C)c23)cc1"
study_system = "SW-620 colon"
class_assignment = "inactive"


Exercise: Give the logged outcome of this assay for the following compound: O=C(Nc1ccc(S(=O)(=O)NC2CCCCCC2)cc1)C(c1ccccc1)S(=O)(=O)c1ccc(F)cc1 (configuration not stated)
Key: inactive

Exercise: Check the results log: what was the call for `CCCCCCCc1n(Cc2ccc3ccccc3c2)c2ccccc2[n+]1Cc1ccc2ccccc2c1` ?
Key: active

====

- Tested on: A549/ATCC NSCLC
- TEST_DETAILS: NCI-60 one-dose screen, 48 h (100 = growth as untreated, 0 = no growth, -100 = all killed)
- APPLIED_CONDITIONS: 10 µM unless noted
- Experimental: Growth inhibition of the A549/ATCC human Non-Small Cell Lung tumor cell line is measured as a screen for anti-cancer activity. Cells are grown in 96 well plates and exposed to the test compound for 48 hours. Compounds are tested at a single concentration, which is 10^-5 M for most compounds. The reported endpoint is percent growth (GI% or GIPRCNT), where numbers from 0 - 100% represent growth inhibition, and numbers from -100% - 0 represent cell death. […]
About 83,000 compounds went through this panel and 20% of them were active in at least one assay; those are over-represented in the sample as a whole. Activity calls are given as the source filed them. How the source made its calls: active means growth percent below 10; inactive means the rest.
PARAMETER_MEASURED: growth

Example compounds with recorded growth:
[[record]]
smiles_structure = "CCOCc1cc(C(C)(C)C)ccc1O"
parameter_measured = "growth"
measured = "90.4% (inactive)"

[[record]]
smiles_structure = "CS(=O)(=O)O[C@@H]1C(=O)N(c2cc3c4ccccc4ccc3c3ccccc23)[C@H]1c1ccc(F)cn1"
parameter_measured = "growth"
measured = "47.1% (inactive)"

[[record]]
smiles_structure = "Nc1cc(N)c(S(=O)(=O)O)cc1N=Nc1cc([N+](=O)[O-])ccc1O"
parameter_measured = "growth"
measured = "95.7% (inactive)"

[[record]]
smiles_structure = "C=C1C(=O)O[C@H]2[C@H]1CC/C(COC(=O)c1cccnc1)=C\\CC[C@@]1(C)O[C@@H]21"
parameter_measured = "growth"
measured = "80.1% (inactive)"

[[record]]
smiles_structure = "O=C1Nc2ccc(Cl)cc2/C1=N/c1nc(-c2ccc(Cl)cc2)cs1"
parameter_measured = "growth"
measured = "7.91% (active)"


Exercise: So what does the record say about growth for `Cc1nccc2c3ccc(OCc4cn(-c5ccc(Cl)cc5)nn4)cc3n(CC(C)C)c12` ?
Key: 30.7% (inactive)

====

- System: HS 578T breast
- TEST_DETAILS: NCI-60 one-dose screen, 48 h
- APPLIED_CONDITIONS: 10 µM unless noted
About 83,000 compounds went through this panel and 20% of them were active in at least one assay; those are over-represented in the sample as a whole. The source made the active and inactive calls. How the source made its calls: active means growth percent below 10; inactive means the rest.
Your reply should match one of these outcome classes. active, inactive

// below: answered compounds
[[record]]
compound = "Nc1ccc(C(=O)Nc2cccc(C(=O)Nc3ccc4c(O)c(N=Nc5ccc(N=Nc6ccc(S(=O)(=O)O)cc6)cc5)c(S(=O)(=O)O)cc4c3)c2)cc1"
study_system = "HS 578T breast"
class_assignment = "inactive"

[[record]]
compound = "CC(=O)c1ccc(NC(=O)CSc2nnc(-c3cc(-c4ccc(Cl)cc4)nc4ccccc34)o2)cc1"
study_system = "HS 578T breast"
class_assignment = "inactive"

[[record]]
compound = "O=C(NCc1ccccc1)c1ccc2c(c1)NC(=O)[C@@H]1CCCN21"
study_system = "HS 578T breast"
class_assignment = "inactive"

[[record]]
compound = "C=C1C(=O)O[C@H]2[C@H]1CCC(/C=N/c1ncc(Br)cc1N)=C\\CC[C@@]1(C)O[C@@H]21"
study_system = "HS 578T breast"
class_assignment = "inactive"

[[record]]
compound = "COC(=O)/C=C1\\SC(=Nc2ccc(F)cc2)N(CCc2c[nH]c3ccccc23)C1=O"
study_system = "HS 578T breast"
class_assignment = "inactive"

[[record]]
compound = "O=C(Nc1nccs1)c1noc2ccccc12"
study_system = "HS 578T breast"
class_assignment = "inactive"

[[record]]
compound = "CC1CCCN(CCCCCOc2ccc3oc4ccc(Cl)cc4c(=O)c3c2)C1 (stereo not drawn)"
study_system = "HS 578T breast"
class_assignment = "inactive"

[[record]]
compound = "C#C[C@@]1(O)[C@@H](CO)O[C@@H](n2cc(Cl)c3c(N)ccnc32)[C@@H]1O"
study_system = "HS 578T breast"
class_assignment = "inactive"


Exercise: Call for entry `Cc1cc(C)n(-c2nc(-c3cccs3)c(C#N)c(=O)[nH]2)n1` :
Key: inactive

Exercise: What outcome does the record of this test show for `O=C(O)c1cn(C2CC2)c2cc(N3CCN(Cc4nnc(Nc5ccccc5)o4)CC3)c(F)cc2c1=O` ?
Key: inactive

Exercise: Recorded test outcome, item `C=C(C)[C@@H]1CC[C@]2(C(=O)O)CC[C@]3(C)[C@H](CC[C@@H]4[C@@]5(C)C[C@@H](CC#Cc6ccc(Cl)cc6)C(=O)C(C)(C)[C@@H]5CC[C@]43C)[C@@H]12`
Key: inactive

Exercise: Check the results log: what was the call for `COc1cc2c(cc1OCCCOc1cc3c(cc1OC)C(=O)N1CC(F)(F)C[C@H]1C=N3)N=C[C@@H]1CC(F)(F)CN1C2=O` ?
Key: active

Exercise: Assay outcome for CCCCCCC/C=C/[C@H]1O[C@]23C(=O)C[C@@]4(C[C@@H](OC5OC(CO)C(O)C(O)C5O)C[C@@H]4[C@H]2C=C1C)OC3=O (stereo partly drawn) : what was it?
Key: inactive

Exercise: Recorded test outcome, item `COc1ccc(-c2cc(-c3nnc(SCC(=O)Nc4ccc(/C(C)=N\O)cc4)o3)c3ccccc3n2)cc1`
Key: inactive

Exercise: Called result for `COc1ccccc1N1CCN(CCCOc2ccc(C(=O)/C=C3/C(=O)Nc4ccccc43)cc2)CC1`
Key: inactive

Exercise: Hey, what did the test say about `COc1ccc(-c2cc(-c3nnc(SCC(=O)Nc4ccc(/C(C)=N\O)cc4)n3-c3ccccc3)c3cc(OC)ccc3n2)cc1` ?
Key: inactive

Exercise: Answer briefly: the call reported for `COc1cc(/C=C/C(=O)c2ccc(NC(=O)CSc3nnc(-c4cc(OC)c(OC)c(OC)c4)n3-c3ccccc3)cc2)cc(OC)c1OC` in this assay.
Key: inactive

Exercise: Could you please tell me the result logged for `C=C(C)[C@@H]1CC[C@]2(C(=O)OCCCC[P+](c3ccccc3)(c3ccccc3)c3ccccc3)CC[C@]3(C)[C@H](CC[C@@H]4[C@@]5(C)CC[C@H](OC(=O)C(Cl)Cl)C(C)(C)[C@@H]5CC[C@]43C)[C@@H]12` in this assay?
Key: active

Values were extracted from PubChem BioAssay (NCI).
